Where do these numbers come from? They come from PubChem BioAssay (NCATS).

- Test system: HaCat
- experimental protocol: Cytotoxic Profiling of Annotated Libraries Using Quantitative High-Throughput Screening (AID 1296008); further: nearly all actives have a fitted effect of over 60% in size
- test parameters: Five cell lines viability, CellTiter-Glo ATP luminescence, 48-72 h
Inconclusive results are not listed. Calls of active or inactive are those of the source. The call rests on the fitted dose curve; in most records, active means well fitted inhibition curve with a large enough effect; inconclusive means small, poorly fitted or top-dose-only effect; inactive means flat fitted curve, though single readings scatter.
observed property: outcome

compound: C/C(=C\CCC(C)(C)O)CCO[C@@H]1O[C@H](CO[C@@H]2O[C@@H](C)[C@H](O)[C@@H](O)[C@H]2O)[C@@H](O)[C@H](O)[C@H]1O
outcome: inactive
//
compound: NC(=O)[C@@H]1CC[C@H](c2ccc(OCc3ccccc3F)cc2)N1
outcome: inactive
//
compound: CC(C)=CCC/C(C)=C/CO[C@@H]1O[C@H](CO[C@@H]2O[C@@H](CO)[C@H](O)[C@H]2O)[C@@H](O)[C@H](O)[C@H]1O
outcome: inactive
//
compound: COc1c2cc(c(O)c1OC)CCCCC(O)CCc1ccc(O)c-2c1 (stereo not given)
outcome: inactive

outcome measured on OC[C@H]1O[C@@H](OCCc2ccccc2)[C@H](O)[C@@H](O)[C@@H]1O = inactive

----------
- System: Zika virus NS2B-NS3 protease (unlinked complex)
- experimental protocol: Primary screen GU Rhodamine qHTS for Zika virus inhibitors: Unlinked NS2B-NS3 protease assay (AID 1347159); further: nearly all actives have a fitted effect of over 60% in size
- test parameters: Recombinant ZIKV NS2B-NS3 protease, Rhodamine110 substrate fluorescence; series mostly up to 107 µM
Records with an inconclusive call do not appear. Activity calls are given as the source filed them. Calls come from the whole dose curve; as a rule, active = well fitted inhibition curve with a large enough effect; inconclusive = small, poorly fitted or top-dose-only effect; inactive = no such curve, though single readings can be large or run the other way.
Outcomes you can answer with include only these: active, inactive

compound: COc1cc(C(C)=O)ccc1O[C@@H]1O[C@H](CO[C@@H]2OC[C@@H](O)[C@H](O)[C@H]2O)[C@@H](O)[C@H](O)[C@H]1O
category label: inactive
//
compound: Cc1cn(-c2cc(NC(=O)c3ccc(C)c(Nc4nccc(-c5cnccn5)n4)c3)cc(C(F)(F)F)c2)cn1
category label: inactive
//
compound: O=C1NC(=O)/C(=C/c2cccc(C(F)(F)F)c2)S1
category label: active
//
compound: CCC(C)/C=C(C)/C=C/C1=CC2=C(Cl)C(=O)C(C)(O)C(=O)C2(O)C(OC)O1 (stereo unspecified)
category label: active

Enquiry: In this assay, the call recorded for C=C1CC[C@]2(C(=O)O[C@@H]3O[C@H](CO)[C@@H](O)[C@H](O)[C@H]3O)CC[C@]3(C)C(=CCC4[C@@]5(C)C[C@H](O)[C@@H](O[C@@H]6O[C@H](C(=O)O)[C@@H](O)[C@H](O)[C@H]6O)[C@](C)(C=O)C5CC[C@]43C)C2C1 (stereo partly specified) was what?
Return: inactive

Enquiry: Record lookup: outcome of this test for COc1ccc([C@H]2OC[C@H]3[C@@H]2CO[C@@H]3c2ccc(O[C@@H]3O[C@H](CO)C(O)[C@H](O)[C@H]3O)c(OC)c2)cc1OC (stereo partly specified) ?
Return: inactive

----------
- experimental protocol: Primary fluorescence-based thiol-reactive (MSTI) qHTS assay for identification of artifact compounds. (AID 1845221); further: nearly all actives have a fitted effect of over 65% in size
- test parameters: MSTI thiol-reactivity probe, 1 h; series mostly up to 53.8 µM
Results filed as inconclusive are left out. Active and inactive are the calls of the source. Calls come from the whole dose curve; as a rule, active = well fitted inhibition curve with a large enough effect; inconclusive = small, poorly fitted or top-dose-only effect; inactive = no such curve, though single readings can be large or run the other way.
Assign a class; possible classes are class 1 = active, class 0 = inactive

compound: CC1(C)Oc2ncnc(N)c2N=C1c1ccc(C2CCC(CC(=O)O)CC2)cc1 (centres undefined)
category label: class 0

compound: CC(C)C(O)(CO)CCO[C@@H]1O[C@H](CO[C@H]2OC[C@](O)(CO)[C@H]2O)[C@@H](O)[C@H](O)[C@H]1O (some centres undefined)
category label: class 0

compound: COc1cc(O)cc2c1C(=O)OC(C)CCCCCCC2 (centres undefined)
category label: class 1

compound: C=C1CCC(OC(C)=O)C2(C)CC3OC(=O)C(C)=C3CC12 (centres undefined)
category label: class 0

Enquiry: I would be grateful if you could indicate the recorded call for CC(C(=O)Nc1cc(C#N)ccc1CCCC(=O)O)c1ccc(F)c2ccccc12 (centres undefined) .
Return: class 0

----------
- Test system: CAOV3
- experimental protocol: Primary qHTS to identify gynecologic anti-cancer compounds using libraries of approved drugs and bioactive compounds (AID 1345084); further: nearly all actives have a fitted effect of over 55% in size
- test parameters: Gynecologic cancer cell panel viability, ATPlite luminescence, 48 h; series mostly up to 57.5 µM
Inconclusive results are not listed. Calls of active or inactive are those of the source. Calls follow the shape of the dose curve; as a rule, active = well fitted cell-killing curve with a large enough effect; inconclusive = small, poorly fitted or top-dose-only effect, or effect the other way; inactive = flat fitted curve, though single readings scatter.
observed property: activity change, negative = cytotoxicity

Use these answered entries as a reference point.
molecule: CC(=O)OC1C(O)/C(C)=C\C2C(OC(=O)c3ccccc3)C(C)CC2(OC(C)=O)C(OC(C)=O)C(C)/C=C/C(C)(C)C1OC(C)=O (configuration not stated)
assayed system: CAOV3
activity change, negative = cytotoxicity: inactive

molecule: C=C[C@H]1[C@H](O[C@@H]2O[C@H](CO)[C@@H](O)[C@H](OC(=O)/C=C/c3ccc(O)c(OC)c3)[C@H]2O)OC=C2C(=O)OCC[C@]21O
assayed system: CAOV3
activity change, negative = cytotoxicity: inactive

molecule: O=C(C1OC1/C=C/c1ccc2c(c1)OCO2)N1CCCCC1 (configuration not stated)
assayed system: CAOV3
activity change, negative = cytotoxicity: inactive

molecule: C/C(=C\CC/C(C)=C/CC[C@]1(C)CCc2cc(O)cc(C)c2O1)CC/C=C(\C)C(=O)O
assayed system: CAOV3
activity change, negative = cytotoxicity: inactive

molecule: COc1cc(O)c(C(=O)O)c(CCc2ccccc2)c1
assayed system: CAOV3
activity change, negative = cytotoxicity: inactive

molecule: CC1CCC2(C(=O)O)CCC3(C)C(=CCC4C5(C)CCC(O)C(C)(C(=O)O)C5CCC43C)C2C1(C)O (configuration not stated)
assayed system: CAOV3
activity change, negative = cytotoxicity: inactive

molecule: CC(=O)OCC(Cc1ccccc1)NC(=O)C(Cc1ccccc1)NC(=O)c1ccccc1 (configuration not stated)
assayed system: CAOV3
activity change, negative = cytotoxicity: inactive

molecule: O=C(O)/C=C/c1ccc2occc2c1O[C@@H]1O[C@H](CO)[C@@H](O)[C@H](O)[C@H]1O
assayed system: CAOV3
activity change, negative = cytotoxicity: inactive

List activity change, negative = cytotoxicity for every entry below, keeping the order given.
1. C#CCCCn1cc(-c2cccc3c2N[C@@H](C)CC(=O)N3)cn1
2. COC(=O)C1=COC(OC2OC(CO)C(O)C(O)C2O)C2C(C)CC(=O)C12O (configuration not stated)
3. CC(C)(OC1OC(CO)C(O)C(O)C1O)C1CCC(O)(CO)C2CC(=O)C(C)(O)C2C1 (configuration not stated)
4. CC1=C2CC(O)(C(C)(C)O)C(O[C@@H]3O[C@H](CO)[C@@H](O)[C@H](O)[C@H]3O)CC(C)C2CC1=O (some centres not stated)
5. O=C(N[C@@H]1CC[C@@H](c2cccc(F)c2F)CN(CC(F)(F)F)C1=O)N1CCC(n2c(=O)[nH]c3ncccc32)CC1
6. Nc1ncnc2c1c(COc1cccc(Cl)c1)nn2C1CCOCC1
7. CC(=O)O[C@@]1(C)[C@@H]2CC(=C(C)C)C(=O)C[C@@]2(C)CC[C@H]1OC(=O)C1(C)OC1C (some centres not stated)
8. CC1(C)CC[C@]2(C(=O)O)CC[C@]3(C)C(=CCC4[C@@]5(C)CC[C@H](O[C@@H]6O[C@H](C(=O)O)[C@@H](O)[C@H](O)[C@H]6O)C(C)(C)C5CC[C@]43C)C2C1 (some centres not stated)

Return:
1. inactive
2. inactive
3. inactive
4. inactive
5. inactive
6. inactive
7. inactive
8. inactive

Param item: C/C=C/C=C/C(=O)OC1CC/C=C/C(O)C(O)C(CCC)OC1=O (configuration not stated) ; param system: CAOV3; output activity change, negative = cytotoxicity: inactive

----------
- Tested on: KB-3-1
- experimental protocol: Cytotoxic Profiling of Annotated Libraries Using Quantitative High-Throughput Screening (AID 1296008); further: nearly all actives have a fitted effect of over 60% in size
- test parameters: Five cell lines viability, CellTiter-Glo ATP luminescence, 48-72 h
Results filed as inconclusive are left out. The source made the active and inactive calls. The call rests on the fitted dose curve; in most records, active means well fitted inhibition curve with a large enough effect; inconclusive means small, poorly fitted or top-dose-only effect; inactive means flat fitted curve, though single readings scatter.
observed property: outcome

# example entries with known answers
molecule: C=CC(C)(C)C12Nc3c(ccc4c3OC(C)(C)C=C4)C1(O)CC1C(=O)N3CCCC3C(=O)N12 (centres undefined)
outcome: inactive
//
molecule: COC1OC(=O)C2=C1C1(C)CCCC(C)(C)C1CC2O (centres undefined)
outcome: inactive
//
molecule: CCC(C)/C=C(C)/C=C/C1=CC2=C(Cl)C(=O)C(C)(OC(C)=O)C(=O)C2=CN1CCCCC(N)C(=O)O (centres undefined)
outcome: inactive
//
molecule: O=C1C(Cl)=C(N2CCOCC2)C(=O)N1c1ccc(Cl)c(Cl)c1
outcome: inactive
//
molecule: CC(C)C1CCC(CO)=CC1/C=C(\CO)C(=O)OCC1(O)CCC(C(C)C)C2C=C(C(=O)O)COC(=O)C21 (centres undefined)
outcome: inactive
//
molecule: CN(C)c1ccc(C2O[C@@H](c3ccccc3)C[C@H](c3ccccc3)O2)cc1 (some centres undefined)
outcome: inactive
//
molecule: C[C@@H](CC[C@@H]1[C@@]2(C)CCCC(C)(C)C2CC[C@@]1(C)O)CC(=O)O (some centres undefined)
outcome: inactive
//
molecule: COC(=O)C1=COC(O[C@@H]2O[C@H](COC(=O)/C=C/c3ccc(O)cc3)[C@@H](O)[C@H](O)[C@H]2O)C2C(CO)=CCC12 (some centres undefined)
outcome: inactive

# context switch: different molecule, same outcome
outcome for CC1(C)OC(=O)CC(O)C2(C)C1CC(=O)C1(C)C2C(O)CC2(C)C(c3ccoc3)OC(=O)C3OC321 (centres undefined) is inactive
